The measured values listed here are drawn from ChEMBL document CHEMBL4680175.

Target: Carbonic anhydrase 9 (Homo sapiens, UniProt Q16790)
Assay: Inhibition of recombinant human carbonic anhydrase 9 preincubated with enzyme for 15 mins by phenol red dye based stopped flow CO2 hydrase assay
Kindly supply the reported Ki values for the records listed here.
Numbers only; they are read as nM.

// query Check Carbonic anhydrase 9 (Homo sapiens, UniProt Q16790) data and give Ki for `N#Cc1c(-c2ccccc2)nc2c(/N=N/c3ccc(S(N)(=O)=O)cc3)c(N)nn2c1N` .
// result 33.5

// query Please report the measured Ki for `Nc1nn2cc(-c3ccccc3)[nH]c2c1/N=N/c1ccc(S(N)(=O)=O)cc1` tested on Carbonic anhydrase 9 (Homo sapiens, UniProt Q16790).
// result 38.1

// query Report its Ki with Carbonic anhydrase 9 (Homo sapiens, UniProt Q16790) as the test system: `N#Cc1c(-c2ccc(Cl)cc2)nc2c(/N=N/c3ccc(S(N)(=O)=O)cc3)c(N)nn2c1N`
// result 31.3

// query GET Ki where system = Carbonic anhydrase 9 (Homo sapiens, UniProt Q16790) and item = `Nc1nn2c(-c3cccs3)ccnc2c1/N=N/c1ccc(S(N)(=O)=O)cc1`
// result 40.1

// query Send back Carbonic anhydrase 9 (Homo sapiens, UniProt Q16790) Ki of `Nc1nn2c(-c3ccc(Cl)cc3)ccnc2c1/N=N/c1ccc(S(N)(=O)=O)cc1` only.
// result 56.3

---

Task for the reader: assign each of the following compounds its reported inhibition of growth at 10 µM.
System: SK-MEL-5
Test: Antitumor activity against human SK-MEL-5 cells assessed as cell growth inhibition at 10 uM incubated for 48 hrs by sulforhodamine B assay
Type: functional
Conditions: read-out: GI
Numbers only; they are read as %.

// query Provide inhibition of growth at 10 µM, tested on SK-MEL-5, for `Cc1ccc(-c2nc3c(/N=N/c4ccc(S(N)(=O)=O)cc4)c(N)nn3c(N)c2C#N)cc1` .
// result 152

// query Provide inhibition of growth at 10 µM, tested on SK-MEL-5, for `Nc1nn2cc(-c3ccccc3)[nH]c2c1/N=N/c1ccc(S(N)(=O)=O)cc1` .
// result 73

// query Fill: inhibition of growth at 10 µM (SK-MEL-5) for this compound `N#Cc1c(-c2ccc(F)cc2)nc2c(/N=N/c3ccc(S(N)(=O)=O)cc3)c(N)nn2c1N`
// result 31

// query Recall the reported inhibition of growth at 10 µM of `N#Cc1c(-c2ccc(Br)cc2)nc2c(/N=N/c3ccc(S(N)(=O)=O)cc3)c(N)nn2c1N` when tested on SK-MEL-5.
// result 54

// query Report the value of inhibition of growth at 10 µM obtained on SK-MEL-5 for `N#Cc1c(-c2ccc(Cl)cc2)nc2c(/N=N/c3ccc(S(N)(=O)=O)cc3)c(N)nn2c1N` .
// result 31

// query Please report inhibition of growth at 10 µM with SK-MEL-5 for item `Nc1nn2cc(-c3ccc(F)cc3)[nH]c2c1/N=N/c1ccc(S(N)(=O)=O)cc1` .
// result 23

// query Report inhibition of growth at 10 µM on SK-MEL-5 for this entry: `Cc1ccc(-c2cn3nc(N)c(/N=N/c4ccc(S(N)(=O)=O)cc4)c3[nH]2)cc1`
// result 51

// query Provide measured inhibition of growth at 10 µM on SK-MEL-5 for `Nc1nn2cc(-c3ccc(Br)cc3)[nH]c2c1/N=N/c1ccc(S(N)(=O)=O)cc1` please.
// result 45

---

Test system: SNB-19
Experiment: Antitumor activity against human SNB-19 cells assessed as cell growth inhibition at 10 uM incubated for 48 hrs by sulforhodamine B assay
Type: functional
Conditions: read-out: GI
Short version: inhibition of growth at 10 µM at least 40% is t, less is f.

// query Record `Nc1nn2cc(-c3ccc(Br)cc3)[nH]c2c1/N=N/c1ccc(S(N)(=O)=O)cc1` ; criterion: inhibition of growth at 10 µM no lower than 40%. Met?
// result f

// query Tell me whether inhibition of growth at 10 µM is at least 40% here: `Cc1ccc(-c2cn3nc(N)c(/N=N/c4ccc(S(N)(=O)=O)cc4)c3[nH]2)cc1`
// result f

// query Is reported inhibition of growth at 10 µM greater than or equal to 40% here: `N#Cc1c(-c2ccc(Br)cc2)nc2c(/N=N/c3ccc(S(N)(=O)=O)cc3)c(N)nn2c1N`
// result f

// query Exam item: decide whether the reported inhibition of growth at 10 µM for `Cc1ccc(-c2nc3c(/N=N/c4ccc(S(N)(=O)=O)cc4)c(N)nn3c(N)c2C#N)cc1` is at least 40%.
// result t

---

Biological target: Carbonic anhydrase 1 (Homo sapiens)
Sequence (P00915 whole entry): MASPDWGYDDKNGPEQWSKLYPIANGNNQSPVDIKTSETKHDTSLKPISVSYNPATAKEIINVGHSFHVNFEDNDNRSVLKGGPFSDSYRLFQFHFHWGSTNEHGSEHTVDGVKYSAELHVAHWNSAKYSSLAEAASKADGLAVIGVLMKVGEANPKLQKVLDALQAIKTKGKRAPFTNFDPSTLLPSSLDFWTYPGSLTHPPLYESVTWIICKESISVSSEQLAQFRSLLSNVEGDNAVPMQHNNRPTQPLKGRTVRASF
Assay: Inhibition of recombinant human carbonic anhydrase 1 preincubated with enzyme for 15 mins by phenol red dye based stopped flow CO2 hydrase assay
pKi: −log10 of the molar value.
Please mark MET if the recorded pKi is equal to or greater than 6, and NOT MET if it falls below.

// query Hi, just wondering whether `N#Cc1c(-c2ccc(F)cc2)nc2c(/N=N/c3ccc(S(N)(=O)=O)cc3)c(N)nn2c1N` shows pKi of 6 or higher.
// result NOT MET

// query Form field: pKi at least 6? Entry: `Cc1ccc(-c2nc3c(/N=N/c4ccc(S(N)(=O)=O)cc4)c(N)nn3c(N)c2C#N)cc1`
// result NOT MET

// query Threshold query (pKi >= 6) on `N#Cc1c(-c2ccccc2)nc2c(/N=N/c3ccc(S(N)(=O)=O)cc3)c(N)nn2c1N`
// result NOT MET

// query Reported pKi reaches at least 6 for `Nc1nn2cc(-c3ccc(Br)cc3)[nH]c2c1/N=N/c1ccc(S(N)(=O)=O)cc1` ?
// result NOT MET

// query Evaluate `Nc1nn2c(-c3ccc([N+](=O)[O-])cc3)ccnc2c1/N=N/c1ccc(S(N)(=O)=O)cc1` : pKi at minimum 6?
// result NOT MET

// query Can `Nc1nn2c(-c3ccccc3)ccnc2c1/N=N/c1ccc(S(N)(=O)=O)cc1` be said to have pKi at or above 6?
// result MET

// query Is pKi at least 6? Consider `Nc1n[nH]c(N)c1/N=N/c1ccc(S(N)(=O)=O)cc1`
// result MET

// query Could you tell me if the measured pKi of `Nc1nn2cc(-c3ccc(Cl)cc3)[nH]c2c1/N=N/c1ccc(S(N)(=O)=O)cc1` reaches 6 or more?
// result MET

// query Quick check: does `N#Cc1c(-c2ccc(Cl)cc2)nc2c(/N=N/c3ccc(S(N)(=O)=O)cc3)c(N)nn2c1N` have pKi greater than or equal to 6?
// result NOT MET

// query Please check the record `COc1ccc(-c2ccnc3c(/N=N/c4ccc(S(N)(=O)=O)cc4)c(N)nn23)cc1` and state if its pKi is at or above 6.
// result MET

// query // inclusive: pKi at least 6? input: `N#Cc1c(-c2ccc(Br)cc2)nc2c(/N=N/c3ccc(S(N)(=O)=O)cc3)c(N)nn2c1N`
// result NOT MET

// query hey, is pKi for this one >= 6? `Nc1nn2c(-c3ccc(Cl)cc3)ccnc2c1/N=N/c1ccc(S(N)(=O)=O)cc1`
// result MET

---

For each record, write down the corresponding inhibition of growth at 10 µM.
System: EKVX
Experiment: Antitumor activity against human EKVX cells assessed as cell growth inhibition at 10 uM incubated for 48 hrs by sulforhodamine B assay
Format: functional
Details: read-out: GI
Numeric only. Scale: %

// query Determine its reported inhibition of growth at 10 µM: `Nc1nn2cc(-c3ccc(Br)cc3)[nH]c2c1/N=N/c1ccc(S(N)(=O)=O)cc1`
// result 21

// query Look up and state reported inhibition of growth at 10 µM for `Nc1nn2cc(-c3ccccc3)[nH]c2c1/N=N/c1ccc(S(N)(=O)=O)cc1`
// result 45

// query Provide one value: measured inhibition of growth at 10 µM of `N#Cc1c(-c2ccc(Br)cc2)nc2c(/N=N/c3ccc(S(N)(=O)=O)cc3)c(N)nn2c1N`
// result 29

// query Specify measured inhibition of growth at 10 µM for `Cc1ccc(-c2cn3nc(N)c(/N=N/c4ccc(S(N)(=O)=O)cc4)c3[nH]2)cc1` .
// result 28

// query For the compound `Cc1ccc(-c2nc3c(/N=N/c4ccc(S(N)(=O)=O)cc4)c(N)nn3c(N)c2C#N)cc1` , give its reported inhibition of growth at 10 µM.
// result 30

---

Biological target: Carbonic anhydrase 9 (Homo sapiens)
Experiment: Inhibition of recombinant human carbonic anhydrase 9 preincubated with enzyme for 15 mins by phenol red dye based stopped flow CO2 hydrase assay
Decide using Ki alone. Strictly below 0.03 µM: 1. Equal to or above 0.03 µM: -1.

// query Item `Nc1nn2c(-c3ccc(F)cc3)ccnc2c1/N=N/c1ccc(S(N)(=O)=O)cc1` : Ki beneath 0.03 µM, strictly?
// result 1

// query Hello, I'm reviewing records and need to know if Ki of `Nc1n[nH]c(N)c1/N=N/c1ccc(S(N)(=O)=O)cc1` is below 0.03 µM. Could you check?
// result 1

// query Field: below-cutoff. Rule: recorded Ki strictly less than 0.03 µM. Subject: `Nc1nn2c(-c3ccc(Br)cc3)ccnc2c1/N=N/c1ccc(S(N)(=O)=O)cc1`
// result -1

// query Take the compound `Nc1nn2cc(-c3ccc(Cl)cc3)[nH]c2c1/N=N/c1ccc(S(N)(=O)=O)cc1` and say whether its Ki is less than 0.03 µM.
// result 1

// query Could you please tell me whether Ki recorded for `Nc1nn2cc(-c3ccc(F)cc3)[nH]c2c1/N=N/c1ccc(S(N)(=O)=O)cc1` is less than 0.03 µM?
// result 1

// query Answer whether the compound `Nc1nn2c(-c3ccccc3)ccnc2c1/N=N/c1ccc(S(N)(=O)=O)cc1` has Ki strictly less than 0.03 µM
// result -1

// query Regarding `Nc1nn2c(-c3ccc([N+](=O)[O-])cc3)ccnc2c1/N=N/c1ccc(S(N)(=O)=O)cc1` , kindly confirm whether its Ki is beneath 0.03 µM.
// result -1

// query Criterion: Ki strictly below 0.03 µM. Is it met by `Cc1ccc(-c2cn3nc(N)c(/N=N/c4ccc(S(N)(=O)=O)cc4)c3[nH]2)cc1` ?
// result 1

// query Ki strictly < 0.03 µM for this compound? `Cc1ccc(-c2nc3c(/N=N/c4ccc(S(N)(=O)=O)cc4)c(N)nn3c(N)c2C#N)cc1`
// result -1
